# Protocol Summary: clinical
# Test Conditions: human, in vivo, iv, Vdss
Numbered stars: 1 amine (or outer) side, 2 acyl side, 3 side chain; on linkers, the order of the positions; unused ones are H or OH. Bridge positions count the residues as written; N and C are the ends. Square brackets hold non-standard residues; d marks the D form. Peptide text beside a SMILES is read from it. * marks the point of attachment. hTyr(3S-OH,4S-OH,3'-OSO3H) = N[C@H](C(=O)O)[C@H](O)[C@@H](O)c1ccc(O)c(OS(=O)(=O)O)c1; Orn(4R-OH,5R-OH) = O=C([C@H](C[C@@H](O)[C@@H](O)N[*:3])N[*:1])[*:2]; Pro(3S-OH,4S-Me) = C[C@H]1CN[C@H](C(=O)O)[C@H]1O; X1 = CCCCCOc1ccc(-c2cc(-c3ccc(C(=O)*)cc3)no2)cc1; Gln(3R-OH) = NC(=O)C[C@@H](O)[C@H](N)C(=O)O; Hyp = O=C(O)[C@@H]1C[C@@H](O)CN1
Parameter: Vd (L/kg)
Supply the numeric figure in L/kg, leaving out any unit text.

Look over these answered cases.
{"columns": ["Molecule", "Parameter", "Reading Unit", "Numeric Readout"],
 "data": [
  ["NCC1(CC(=O)O)CCCCC1 [GABAPENTIN]", "Vd", "L/kg", 0.71],
  ["CN(CC(N)=O)C(=O)N(CCCl)N=O [SARCNU]", "Vd", "L/kg", 0.76],
  ["CCCCCOc1ccc(-c2cc(-c3ccc(C(=O)N[C@H]4C[C@@H](O)[C@@H](O)NC(=O)[C@@H]5[C@@H](O)[C@@H](C)CN5C(=O)[C@H]([C@H](O)CC(N)=O)NC(=O)[C@H]([C@H](O)[C@@H](O)c5ccc(O)c(OS(=O)(=O)O)c5)NC(=O)[C@@H]5C[C@@H](O)CN5C(=O)[C@H]([C@@H](C)O)NC4=O)cc3)no2)cc1 [MICAFUNGIN] (X1-[Orn(4R-OH,5R-OH)]T[Hyp][hTyr(3S-OH,4S-OH,3'-OSO3H)][Gln(3R-OH)][Pro(3S-OH,4S-Me)]; lactam 1-C)", "Vd", "L/kg", 0.21]
]}

Turning now to a further record.
# Vd (molecule: COc1ccc(Cc2nccc3cc(OC)c(OC)cc23)cc1OC [PAPAVERINE] ) is 0.95

* * *

# Protocol Summary: clinical
# Test Conditions: human, in vivo, iv
List of MRT values.
Unit h implied. Number only.

Solved entries (count: 5):
{"columns": ["Compound", "Reading Unit", "MRT"],
 "data": [
  ["NCCCCCC(=O)O", "h", 2.6],
  ["COC(=O)C1=C(C)NC(C)=C(C(=O)OCCCN2CCC(c3ccccc3)(c3ccccc3)CC2)[C@@H]1c1cccc([N+](=O)[O-])c1", "h", 15],
  ["[H]/N=C(/N)N[C@H]1[C@H](O)[C@@H](O)[C@H](O[C@@H]2O[C@@H](C)[C@](O)(C=O)[C@H]2O[C@@H]2O[C@@H](CO)[C@H](O)[C@@H](O)[C@@H]2NC)[C@@H](N/C(N)=N\\[H])[C@@H]1O", "h", 7.3],
  ["Cc1cn([C@H]2C=C[C@@H](CO)O2)c(=O)[nH]c1=O", "h", 1.4],
  ["O=C1NCC2(CCN(CCc3ccccc3)CC2)O1 [FENSPIRIDE]", "h", 19]
]}

Short answer for Cc1nnc(SCC2=C(C(=O)O)N3C(=O)[C@@H](NC(=O)[C@H](O)c4ccccc4)[C@H]3SC2)s1 : MRT was 0.83

Given item CCC1(c2cccc(O)c2)CCCCN(C)C1 (centres undefined) , the value recorded as its MRT is 2

The compound CC(C)[C@@H](CC[C@@H](C)[C@H]1CC[C@H]2[C@@H]3[C@H](O)C[C@H]4C[C@@H](NCCCNCCCCN)CC[C@]4(C)[C@H]3CC[C@]12C)OS(=O)(=O)O showed MRT equal to 3.2

Reported MRT for CN(C)[C@@H]1C(O)=C(C(N)=O)C(=O)[C@@]2(O)C(O)=C3C(=O)c4c(O)cccc4[C@@](C)(O)[C@H]3C[C@@H]12 was 12

// MRT lookup, compound = CN(C)CCCN1c2ccccc2CCc2ccc(Cl)cc21 , result: 26

Entry CN(C)CCCC1(c2ccc(F)cc2)OCc2cc(C#N)ccc21 (centres undefined) , MRT reported as 47

Record summary for N[C@@H](Cc1ccc(O)c(O)c1)C(=O)O : reported MRT = 1.2

Record NCC[C@H](O)C(=O)N[C@@H]1C[C@H](N)[C@@H](O[C@H]2O[C@H](CN)[C@@H](O)[C@H](O)[C@H]2O)[C@H](O)[C@H]1O[C@H]1O[C@H](CO)[C@@H](O)[C@H](N)[C@H]1O , field MRT: 2.4

For reference, reported MRT for O=C1OC2(c3ccc(O)cc3Oc3cc(O)ccc32)c2ccccc21 stands at 1.8

get_value(item= Nc1nc(O)c2ncn(COC(CO)CO)c2n1 , readout=MRT) returns 3.7

Entry under test: O=P1(N(CCCl)CCCl)NCCCO1 (centres undefined) [CYCLOPHOSPHAMIDE ANHYDROUS] . Its MRT was 11

Measured MRT, COCc1c(C(C)C)nc(C(C)C)c(/C=C/[C@@H](O)C[C@@H](O)CC(=O)O)c1-c1ccc(F)cc1 : 1.8

Looking up CCN(CC)CC#CCOC(=O)C(O)(c1ccccc1)C1CCCCC1 (centres undefined) , I found its MRT recorded as 2.7

// MRT value for O.O=P(O)(O)C(O)(Cn1ccnc1)P(=O)(O)O : 4.5

* * *

# Protocol Summary: clinical
# Test Conditions: human, in vivo, iv, t1/2
half-life for assorted molecules
Report as a plain number; the unit h is understood.

Recorded results for 4 molecules are shown here.
{"columns": ["Molecule", "Reading Unit", "half-life"],
 "data": [
  ["CC1=C(C(=O)O)N2C(=O)[C@@H](NC(=O)[C@H](N)c3ccc(O)cc3)[C@H]2SC1 [CEFADROXIL]", "h", 1.1],
  ["CC(=O)N[C@H]1[C@H]([C@H](O)[C@H](O)CO)OC(C(=O)O)=C[C@@H]1N=C(N)N [ZANAMIVIR]", "h", 1.7],
  ["CCC(=O)O[C@]1(C(=O)SCF)[C@H](C)C[C@H]2[C@@H]3C[C@H](F)C4=CC(=O)C=C[C@]4(C)[C@@]3(F)[C@@H](O)C[C@@]21C [FLUTICASONE PROPIONATE]", "h", 6],
  ["CO[C@H]1/C=C/O[C@@]2(C)Oc3c(C)c(O)c4c(c3C2=O)C2=NC3(CCN(CC(C)C)CC3)NC2=C(NC(=O)/C(C)=C\\C=C\\[C@H](C)[C@H](O)[C@@H](C)[C@@H](O)[C@@H](C)[C@H](OC(C)=O)[C@@H]1C)C4=O [RIFABUTIN]", "h", 37]
]}

What the record says about CC(=O)[C@]1(O)Cc2c(O)c3c(c(O)c2[C@@H](O[C@H]2C[C@H](N)[C@H](O)[C@H](C)O2)C1)C(=O)c1ccccc1C3=O [IDARUBICIN] : half-life is 16

For reference, reported half-life for CC1(C)S[C@@H]2[C@H](NC(=O)[C@H](N)c3ccccc3)C(=O)N2[C@H]1C(=O)O [AMPICILLIN] stands at 1.4

// half-life value for CN[C@@H]1C[C@H]2O[C@@](C)([C@@H]1OC)n1c3ccccc3c3c4c(c5c6ccccc6n2c5c31)C(=O)N[C@@H]4O : 790

// half-life value for Cc1cn([C@H]2C=C[C@@H](CO)O2)c(=O)[nH]c1=O [STAVUDINE] : 1.4

Reported half-life for Cc1onc(-c2ccccc2)c1C(=O)N[C@@H]1C(=O)N2[C@@H]1SC(C)(C)[C@@H]2C(=O)O [OXACILLIN] was 0.7

Value of measured half-life for the entry CNCCCC12CCC(c3ccccc31)c1ccccc12 [MAPROTILINE] : 51

* * *

# Protocol Summary: clinical
# Test Conditions: human, in vivo, iv
# MRT annotations
Please answer using the number first and the unit second.

Use these answered entries as a reference point.
{"columns": ["Compound", "Result"],
 "data": [
  ["Cc1ccc(-c2ncc(Cl)cc2-c2ccc(S(C)(=O)=O)cc2)cn1", "32 h"],
  ["CCN(C(C)=O)c1cccc(-c2ccnc3c(C#N)cnn23)c1", "1.4 h"],
  ["Nc1nc(F)nc2c1ncn2[C@@H]1O[C@H](CO)[C@@H](O)[C@@H]1O", "12 h"],
  ["Nc1ccn(C[C@@H](CO)OCP(=O)(O)O)c(=O)n1.O.O", "3.3 h"],
  ["CCOc1ccc(/C=C2\\NCCc3cc(OCC)c(OCC)cc32)cc1OCC", "9 h"]
]}

Just so you know, measured MRT for COCC(=O)Nc1c(I)c(C(=O)NCC(O)CO)c(I)c(C(=O)N(C)CC(O)CO)c1I (stereo unspecified) [IOPROMIDE] came out at 2.6 h
